System: CCRF-CEM leukemia
Experimental details: NCI tumour cell line growth inhibition, 48 h
Assay readout: TGI

{"Compound": "Cc1ccccc1-n1c(=O)c2ncn(C3CCCO3)c2n(-c2ccccc2C)c1=S (stereo unspecified)", "Reported value": "> 100 µM"}
{"Compound": "COc1cc(N2C(=O)[C@H](O)C2c2ccc(SC)cc2)cc(OC)c1OC (stereo partly specified)", "Reported value": "> 100 µM"}
{"Compound": "O=S1(=O)OCCOS(=O)(=O)C1(F)Br", "Reported value": "> 100 µM"}
{"Compound": "CO/N=C(/C)c1ccc(NC(=O)CSc2nnc(-c3ccncc3)n2-c2ccccc2)cc1", "Reported value": "> 100 µM"}
{"Compound": "COc1ccc(C(=O)/C=C/c2ccc(O)c(O)c2)c(OC)c1", "Reported value": "> 32 µM"}
{"Compound": "C=CC1(NC(=O)c2ccccc2)CCC(C(C)(C)C)CC1 (stereo unspecified)", "Reported value": "72.1 µM"}
